- TESTED_SYSTEM: LSD1 (Homo sapiens (Human))
- METHOD_NOTES: LSD1 enzyme activity detection (HTRF)
- Assay type: biochemical
- TEST_PARAMETERS: HTRF, H3K4me1 substrate; read-out: Inhibition of enzymatic activity of LSD1 IC50
pIC50: −log10 of the molar value. Structures can show the parent of a compound that is named as a salt.
Binary classification by pIC50, with 9 as an inclusive lower bound for TRUE; all other cases are FALSE.

MOLECULE | CATEGORY
COc1ccc(-c2c(-c3ccc(C#N)c(F)c3)nc(N3CCC(N)CC3)c3[nH]ncc23)cc1O [Example 287, hydrochloride] | TRUE
COc1ccc(-c2c(OC)cc(N3CCC(N)CC3)nc2-c2ccc(C#N)c(F)c2)cc1C#N | FALSE
CC(C)(O)C#Cc1ccc(-c2c(O)cc(N3CCC(N)CC3)nc2-c2ccc(C#N)c(F)c2)cc1F [Example 25, hydrochloride] | FALSE
Cc1ccc(-c2c(-c3ccc(C#N)c(F)c3)nc(N3C4CCC3CC(N)C4)n3ccnc23)cc1O (centres unmarked) [Example 156, hydrochloride] | TRUE

---

- TESTED_SYSTEM: LSD1 (Homo sapiens (Human), UniProt O60341)
- METHOD_NOTES: LSD1 enzyme activity detection (HTRF)
- Type: biochemical
- TEST_PARAMETERS: HTRF, H3K4me1 substrate; read-out: Inhibition of enzymatic activity of LSD1 IC50
Where a name gives a salt, the structure may show the parent alone.

MOLECULE | TESTED_SYSTEM | IC50 [nM]
Cc1noc2cc(-c3c(-c4ccc(C#N)c(F)c4)nc(N4CCC(N)CC4)c4c3cnn4C)c(F)cc12 | LSD1 (Homo sapiens (Human), UniProt O60341) | 3.5
COc1ccc(-c2c(OC3CCCC3)cc(N3CCC(N)CC3)nc2-c2ccc(C#N)c(F)c2)cc1O | LSD1 (Homo sapiens (Human), UniProt O60341) | 2.3
COc1ccc(-c2c(-c3ccc(C#N)c(F)c3)nc(N3CC4CCC(C3)C4N)n3ccnc23)cc1F (stereo not drawn) [Example 162, hydrochloride] | LSD1 (Homo sapiens (Human), UniProt O60341) | 59.9
Cc1ccc(-c2c(-c3ccc(C#N)c(F)c3)nc(N3CC4CCC(C3)C4N)n3ccnc23)cc1O (stereo not drawn) | LSD1 (Homo sapiens (Human), UniProt O60341) | 2.8
COc1ccc(-c2c(-c3cnc(C#N)nc3)nc(N3C4CCC3CC(N)C4)n3ccnc23)cc1F (stereo not drawn) | LSD1 (Homo sapiens (Human), UniProt O60341) | 77.1
O=C(c1cc(CN[C@@H]2C[C@H]2c2ccc(F)cc2)nc(-c2cccnc2)n1)N1CCOCC1 | LSD1 (Homo sapiens (Human), UniProt O60341) | 770
Cc1noc2cc(-c3sc(C(=O)N4C5CCC4CC(N)C5)cc3-c3ccc(S(N)(=O)=O)cc3)c(F)cc12 (stereo not drawn) | LSD1 (Homo sapiens (Human), UniProt O60341) | 207
Cc1sc(C(=O)N2C3CCC2CC(N)C3)cc1-c1ccc(C#N)c(F)c1 (stereo not drawn) [Example 199, hydrochloride] | LSD1 (Homo sapiens (Human), UniProt O60341) | 72
CC1(N)CCN(c2nc(-c3ccc(C#N)c(F)c3)c(-c3ccc(F)c(O)c3)c3nccn23)CC1 | LSD1 (Homo sapiens (Human), UniProt O60341) | 11.5
Cc1noc2cc(-c3c(O)cc(N4C5CCC4CC(N)C5)nc3-c3ccc(C#N)c(F)c3)c(F)cc12 (stereo not drawn) | LSD1 (Homo sapiens (Human), UniProt O60341) | 21.5
COc1ccc(-c2c(C)nc(N3CCC(N)CC3)c(C#N)c2-c2ccc(C#N)c(F)c2)cc1O | LSD1 (Homo sapiens (Human), UniProt O60341) | 0.1
Cc1ccc(-c2c(-c3ccc(C#N)cc3)cc3c(N4CCN(C)CC4)nncn23)cc1 | LSD1 (Homo sapiens (Human), UniProt O60341) | 208
Cc1noc2cc(-c3sc(C(=O)N4C5CCC4CC(N)C5)cc3-c3ccccc3)c(F)cc12 (stereo not drawn) [Example 207, hydrochloride] | LSD1 (Homo sapiens (Human), UniProt O60341) | 1250
COc1ccc(-c2cc(N3CCC(N)CC3)nc(-c3ccc(C#N)c(F)c3)c2OC)cc1F | LSD1 (Homo sapiens (Human), UniProt O60341) | 712
CS(=O)(=O)N1CCN(C(=O)c2cc(CN[C@@H]3C[C@H]3c3ccc(F)cc3)nc(-c3ccc(-n4ccnn4)cc3)n2)CC1 | LSD1 (Homo sapiens (Human), UniProt O60341) | 22.9
COc1cc(N2CCC(N)CC2)nc(-c2ccc(C#N)c(F)c2)c1-c1ccc(F)c(O)c1 | LSD1 (Homo sapiens (Human), UniProt O60341) | 1.1
Cn1ccc(-c2cnc(N3CCC(N)CC3)c(C#N)c2-c2ccc(C#N)c(F)c2)cc1=O [Example 83, hydrochloride] | LSD1 (Homo sapiens (Human), UniProt O60341) | 35.4
Cc1noc2cc(-c3oc(C(=O)N4C5CCC4CC(N)C5)nc3-c3ccc(C#N)c(F)c3)c(F)cc12 (stereo not drawn) [Example 222, hydrochloride] | LSD1 (Homo sapiens (Human), UniProt O60341) | 14.4
CS(=O)(=O)N1CCN(C(=O)c2cc(CN[C@@H]3C[C@H]3c3ccc(F)cc3)nc(-c3ccccc3)n2)CC1 | LSD1 (Homo sapiens (Human), UniProt O60341) | 186
COc1ccc(-c2cnc(N3C4CCCC3CC(N)C4)c(C#N)c2-c2ccc(C#N)c(F)c2)cc1O (stereo not drawn) | LSD1 (Homo sapiens (Human), UniProt O60341) | 500
N#Cc1ccc(-c2nc(N3C4CCC3CC(N)C4)n3ccnc3c2-c2cc3nonc3cc2F)cc1F (stereo not drawn) | LSD1 (Homo sapiens (Human), UniProt O60341) | 17.3

---

Recorded IC50 values for a group of molecules are listed next.
- TESTED_SYSTEM: CYP3A4 (Homo sapiens (Human), UniProt P08684)
- Sequence (P08684 whole entry): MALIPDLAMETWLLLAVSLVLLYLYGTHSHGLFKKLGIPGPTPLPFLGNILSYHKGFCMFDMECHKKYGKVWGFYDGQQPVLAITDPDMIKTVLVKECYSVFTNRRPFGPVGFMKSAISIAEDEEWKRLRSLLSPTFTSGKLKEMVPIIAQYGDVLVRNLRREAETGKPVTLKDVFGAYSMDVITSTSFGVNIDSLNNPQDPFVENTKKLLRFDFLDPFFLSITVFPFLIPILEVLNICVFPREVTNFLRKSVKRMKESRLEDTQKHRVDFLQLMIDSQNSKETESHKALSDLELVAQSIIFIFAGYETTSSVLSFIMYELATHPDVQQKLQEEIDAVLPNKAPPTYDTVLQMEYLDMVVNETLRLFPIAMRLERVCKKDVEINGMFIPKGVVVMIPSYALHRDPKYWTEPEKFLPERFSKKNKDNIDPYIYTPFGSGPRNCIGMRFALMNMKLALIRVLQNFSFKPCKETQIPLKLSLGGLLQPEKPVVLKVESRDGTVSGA
- TEST_PARAMETERS: microsomes
Counter-ions that a name gives are not always drawn.

MOLECULE | IC50 (µM)
N#Cc1ccc(-c2nc(N3C4CCC3CC(N)C4)n3ccnc3c2-c2cc3c(cc2F)OCO3)cc1F (stereo not drawn) [Example 175, hydrochloride] | 8.08
COc1ccc(-c2c(-c3ccc(C#N)c(F)c3)nc(N3C4CCC3CC(N)C4)n3ccnc23)cc1F (stereo not drawn) [Example 120] | 8.93
COc1ccc(-c2c(-c3ccc(C#N)c(F)c3)nc(N3C4CCC3CC(N)C4)n3ccnc23)cc1O (stereo not drawn) [Example 155, hydrochloride] | 18

---

- TESTED_SYSTEM: LSD1 (Homo sapiens (Human), UniProt O60341)
- METHOD_NOTES: LSD1 enzyme activity detection (HTRF)
- Format: biochemical
- TEST_PARAMETERS: HTRF, H3K4me1 substrate; read-out: Inhibition of enzymatic activity of LSD1 IC50
Counter-ions that a name gives are not always drawn.
Recorded log10(IC50) values for a group of compounds are listed next.
RECORDED_METRIC: log10(IC50) (log10 of the value in nM)

COMPOUND | log10(IC50)
CC1CN(C(=O)c2cc(CN[C@@H]3C[C@H]3c3ccc(F)cc3)nc(-c3ccc(C#N)cc3)n2)CC(C)N1 (some centres unmarked) [Example 239] | 0.68
Cc1ccc(-c2c(-c3ccc(C#N)cc3)cc3c(N4CCC[C@@H](N)C4)nccn23)cc1 [Example 3] | -0.10
N#Cc1ccc(-c2nc(N3C4CCC3CC(N)C4)n3ccnc3c2-c2cc3nc[nH]c3cc2F)cc1F (centres unmarked) [Example 172] | 0.70
O=C(c1cc(CN[C@@H]2C[C@H]2c2ccc(F)cc2)nc(-c2ccc(-n3cccn3)cc2)n1)N1CCC(F)(F)CC1 [Example 230] | 1.68
COc1cc(-c2c(OC)cc(N3CCC(N)CC3)nc2-c2ccc(C#N)c(F)c2)ccc1O [Example 97] | 1.95
Cn1cc2cc(-c3cnc(N4CCC(N)CC4)c(C#N)c3-c3ccc(C#N)c(F)c3)ccc2n1 [Example 84, hydrochloride] | 0.34
CS(=O)(=O)N1CCN(c2cc(CN[C@@H]3C[C@H]3c3ccc(F)cc3)nc(-c3ccc(C#N)cc3)n2)CC1 [Example 264] | 1.94
COc1ccc(-c2c(O)cc(N3CCC(C)(N)CC3)nc2-c2ccc(C#N)c(F)c2)cc1F [Example 50] | 0.85
